Reference source: patent US8367666B2

Structures can show the parent of a compound that is named as a salt.
Recorded metric: melting point

See these solved cases before continuing.
[
  {
    "Compound": "CC(C)(NC(=O)c1cc2c(n(CC3CCCCC3)c1=O)CCCCCC2)C(=O)NNS(C)(=O)=O",
    "melting point": "177 to 178 °C"
  },
  {
    "Compound": "CN1CCN(C(=O)C(C)(C)NC(=O)c2cc3c(n(CC4CCCCC4)c2=O)CCCCCC3)CC1",
    "melting point": "183 to 184 °C"
  },
  {
    "Compound": "CC(C)(NC(=O)c1cc2c(n(CC3CCCCC3)c1=O)CCCCCC2)C(=O)NN",
    "melting point": "177 to 180 °C"
  },
  {
    "Compound": "COC(=O)NCCCn1c2c(cc(C(=O)NC(C)(C)C(=O)OC)c1=O)CCCCCC2 (as salt: phosphate)",
    "melting point": "135 to 136 °C"
  }
]

**Query** Give the measured melting point of CCCCn1c(CCC)c(CC)cc(C(=O)NC2CCCCC2C(=O)O)c1=O (stereo not drawn) .
**Result** 167 to 169 °C

**Query** # lookup: melting point of CC(C)(NC(=O)c1cc2c(n(CCCNS(C)(=O)=O)c1=O)CCCCCC2)C(=O)O
**Result** 183 to 184 °C
